TGI listing for selected compounds.
Test system: HT29 colon
experimental-protocol: NCI tumour cell line growth inhibition, 48 h

See these solved cases before continuing.
compound: C=CC(COC(=O)C(C)(C)OC(C)=O)c1ccc(OC(=O)C(C)C)c(OC)c1 (stereo unspecified)
TGI: > 36.1 µM
//
compound: O=C(O)c1nc2ccc(Cl)cc2[nH]c1=O
TGI: > 100 µM
//
compound: COC(=O)C1CCC(=O)N1CN(C(C)=O)c1cc(OC)ccc1OC (stereo unspecified)
TGI: > 100 µM
//
compound: Cc1cc(N(CCC#N)CCC#N)ccc1N=Nc1cc(Cl)ccc1Cl
TGI: 13.1 µM
//
compound: CCOC(=O)C(=O)Nc1cc(Cl)c(Cl)cc1Cl
TGI: > 100 µM

Recorded result, `O=C1CNC(=O)/C(=C/c2c[nH]c3ccccc23)N1` , TGI: > 100 µM

Recorded result, `Cc1coc2c1C(=O)C(=O)c1ccccc1-2` , TGI: 3.53 µM

Recorded result, `O=C1c2c(Br)sc(Br)c2[C@@H](Cl)[C@H]1Cl` , TGI: > 100 µM

Recorded result, `O=C1C[C@H](COCc2ccccc2)NC(=O)C[C@H](COCc2ccccc2)NC(=O)C[C@H](COCc2ccccc2)N1` , TGI: > 100 µM

Recorded result, `C[P+](C)(C)C` , TGI: > 100 µM

Recorded result, `Cn1nc2ccc([N+](=O)[O-])cc2[n+]1[O-]` , TGI: > 100 µM

Recorded result, O=C(O)C1OC1C(=O)O (stereo unspecified) , TGI: > 100 µM

Recorded result, CC(=O)NC1C(OC(C)C(=O)NC(C(=O)NC(CCC(=O)NCCCNC2c3ccccc3Nc3cccc([N+](=O)[O-])c32)C(N)=O)C(C)C)C(O)C(CO)OC1(C)OCc1ccccc1 (stereo unspecified) , TGI: 0.417 µM

Recorded result, `N#CCCN(CCC#N)c1ccc(C(N=Nc2ccc(Cl)cc2)=Nc2ccccc2)cc1` , TGI: 34.3 µM

Recorded result, Nc1c(C(=O)Nc2ccccn2)sc2nc3c(cc12)C(O)CCC3 (stereo unspecified) , TGI: > 50 µM

Recorded result, `C/C=C/C/C=C/[C@H](C)C[C@H](O)[C@@H]1C[C@@H]2O[C@H]2/C=C/[C@@H]2OC(C)(C)O[C@H]2/C=C/C[C@H](C)CC(=O)O1` , TGI: > 100 µM

Recorded result, `O=C(c1cccc2ccccc12)C1S(=O)(=O)OCCOS1(=O)=O` , TGI: > 100 µM

Recorded result, `OC(c1ccc(Cl)cc1)(c1ccc(Cl)cc1)c1cncnc1` , TGI: 32.1 µM

====

System: HT29 colon
experimental-protocol: NCI tumour cell line growth inhibition, 48 h
TGI listing for selected compounds.

See these solved cases before continuing.
mol-smiles: Cc1ccc(C(=O)c2sc3nc4c(cc3c2N)CCCC4)c(C)c1
assay-target: HT29 colon
TGI: > 35 µM
//
mol-smiles: O=C(O)[C@@H]1OCCOCCO[C@@H](C(=O)O)[C@H](C(=O)O)OCCOCCO[C@H]1C(=O)O
assay-target: HT29 colon
TGI: > 100 µM
//
mol-smiles: CCOC(=O)c1nc2ccccc2nc1NCc1ccc(OC)c(OC)c1
assay-target: HT29 colon
TGI: > 100 µM
//
mol-smiles: O=[N+]([O-])c1ccc(-n2nc3ccc4c(no[n+]4[O-])c3[n+]2[O-])c([N+](=O)[O-])c1
assay-target: HT29 colon
TGI: 15.1 µM

The record that follows has no TGI shown yet.
Recorded result, `CNCC/C=C1\c2cc3c(cc2-c2c1c1cc(OC)c(OC)cc1c(=O)n2C)OCO3` , TGI: > 100 µM
